# Tested target: CAL PDZ domain
# Protocol summary: FP displacement / competition assay, CAL PDZ domain
# Format: binding
# Cond: FP displacement
# Description: Experimental Procedure. The experimental inhibitory constants of top- and poorly-ranked peptide sequences from the K* CAL-CFTR design were experimentally determined. […] Briefly, the CAL PDZ domain was incubated with a labeled peptide of known binding affinity. Each peptide inhibitor was serially diluted and the protein-peptide mixture was added to each dilution. Finally, the amount of competitive inhibition was tracked using residual fluorescence polarization.
Where no end group is shown, it is not given here.
Reported property: pKi
Give bare numbers, as −log10 of the molar value.

Look up pKi: Ac-WQVTRV [kCAL01] 5.68

The reported numbers originate from patent US9421239B2.
